# TARGET ENTITY: rP2 × 4R (Rattus norvegicus, UniProt P51577)
# Construct: host or cells: Xenopus laevis oocytes (intranuclear plasmid injection, pcDNA3)
# Sequence (P51577 1-388): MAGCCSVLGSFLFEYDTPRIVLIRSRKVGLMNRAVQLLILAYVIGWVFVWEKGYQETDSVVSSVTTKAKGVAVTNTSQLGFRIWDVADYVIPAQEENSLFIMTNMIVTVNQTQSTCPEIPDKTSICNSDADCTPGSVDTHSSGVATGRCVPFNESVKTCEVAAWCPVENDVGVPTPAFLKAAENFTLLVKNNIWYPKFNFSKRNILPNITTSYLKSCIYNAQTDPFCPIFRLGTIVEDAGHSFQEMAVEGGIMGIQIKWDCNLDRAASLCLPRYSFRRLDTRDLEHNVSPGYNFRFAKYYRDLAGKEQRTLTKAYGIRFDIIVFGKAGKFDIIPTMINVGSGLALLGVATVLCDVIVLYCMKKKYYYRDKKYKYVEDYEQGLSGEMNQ
# ASSAY PROTOCOL: ATP concentration–response curves, two-electrode voltage clamp in oocytes expressing wild type rP2 × 4R
# Type: cell-based
# MEASUREMENT CONDITIONS: ATP EC50, NEM treatment + Zn(II) group; control before treatment (first ATP curve)
QUANTITY: EC50 (µM)
Your answer should be a plain number; it is taken to be in µM.

Query: Checklist item: EC50 tested on rP2 × 4R (Rattus norvegicus, UniProt P51577), entry Nc1ncnc2c1ncn2[C@@H]1O[C@H](COP(=O)(O)OP(=O)(O)OP(=O)(O)O)[C@@H](O)[C@H]1O [ATP, adenosine triphosphate] , value?
Result: 24.5

* * *

# TARGET ENTITY: rP2 × 4R C132S/C159S mutant (Rattus norvegicus, UniProt P51577, C132S/C159S)
# ASSAY PROTOCOL: ATP concentration–response curves, voltage clamp, C132S/C159S double mutant
# MEASUREMENT CONDITIONS: control
QUANTITY: pEC50
Please note pEC50 is a logarithmic value: minus log10 of concentration in mol/L. Answer with that number alone.

Query: Can you share its pEC50? I mean this molecule: Nc1ncnc2c1ncn2[C@@H]1O[C@H](COP(=O)(O)OP(=O)(O)OP(=O)(O)O)[C@@H](O)[C@H]1O [ATP, adenosine triphosphate]
Result: 4.69

* * *

# TARGET ENTITY: rP2 × 2R (Rattus norvegicus, UniProt P49653)
# ASSAY PROTOCOL: cell-based
# MEASUREMENT CONDITIONS: ATP EC50, vehicle treatment, Figure 1D; without Zn(II)
QUANTITY: EC50 (µM)
Your answer should be a plain number; it is taken to be in µM.

Query: Can you share its EC50? I mean this molecule: Nc1ncnc2c1ncn2[C@@H]1O[C@H](COP(=O)(O)OP(=O)(O)OP(=O)(O)O)[C@@H](O)[C@H]1O [ATP, adenosine triphosphate]
Result: 56.4

* * *

# TARGET ENTITY: UniProt:P49653
# Sequence (P49653 1-472): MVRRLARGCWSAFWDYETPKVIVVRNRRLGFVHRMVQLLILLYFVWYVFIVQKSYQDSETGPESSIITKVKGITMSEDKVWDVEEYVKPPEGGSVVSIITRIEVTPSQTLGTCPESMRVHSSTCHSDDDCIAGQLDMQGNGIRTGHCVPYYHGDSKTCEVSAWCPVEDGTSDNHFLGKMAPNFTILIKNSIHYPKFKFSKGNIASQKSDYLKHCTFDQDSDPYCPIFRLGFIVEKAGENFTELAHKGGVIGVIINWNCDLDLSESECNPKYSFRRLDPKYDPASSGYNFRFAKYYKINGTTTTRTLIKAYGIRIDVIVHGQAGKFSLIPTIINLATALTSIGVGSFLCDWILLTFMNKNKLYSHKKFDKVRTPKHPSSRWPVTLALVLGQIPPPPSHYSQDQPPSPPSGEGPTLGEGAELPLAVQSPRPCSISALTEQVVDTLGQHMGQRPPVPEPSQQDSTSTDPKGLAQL
# ASSAY PROTOCOL: cell-based
# MEASUREMENT CONDITIONS: ATP EC50, after 300 µM NEM + vehicle treatment; control = ATP curve after treatment
QUANTITY: EC50 (µM)
Your answer should be a plain number; it is taken to be in µM.

Query: Can you share its EC50? I mean this molecule: Nc1ncnc2c1ncn2[C@@H]1O[C@H](COP(=O)(O)OP(=O)(O)OP(=O)(O)O)[C@@H](O)[C@H]1O [ATP, adenosine triphosphate]
Result: 35
